Target of assay: Adenosine receptor A1 (Homo sapiens)
Assay details: Agonist activity at human recombinant adenosine receptor-1 expressed in CHO cells assessed as inhibition of forskolin-stimulated cAMP production at 10 uM preincubated for 45 mins prior forskolin-induction measured after 15 mins by immunoassay relative to 10 uM CPA
Assay type: functional, cell-based
Classify as follows. Reported inhibition greater than or equal to 50%: condition met. Reported inhibition below: condition not met.

>  <Structure as smiles>
Nc1nc(Cl)nc2c1ncn2[C@H]1[C@H](O)[C@H](O)[C@@H]2C[C@@H]21

>  <Label>
condition met

$$$$
>  <Structure as smiles>
O[C@@H]1[C@H](O)[C@@H]2C[C@@H]2[C@H]1n1cnc2c(NC3CCCCCC3)nc(Cl)nc21

>  <Label>
condition not met

$$$$
>  <Structure as smiles>
O[C@@H]1[C@H](O)[C@@H]2C[C@@H]2[C@H]1n1cnc2c(NC3CCCCCCC3)nc(Cl)nc21

>  <Label>
condition not met

$$$$
>  <Structure as smiles>
CCC(CC)Nc1nc(Cl)nc2c1ncn2[C@H]1[C@H](O)[C@H](O)[C@@H]2C[C@@H]21

>  <Label>
condition not met

$$$$
>  <Structure as smiles>
O[C@@H]1[C@H](O)[C@@H]2C[C@@H]2[C@H]1n1cnc2c(NC3CCCCC3)nc(Cl)nc21

>  <Label>
condition not met

$$$$
>  <Structure as smiles>
O[C@@H]1[C@H](O)[C@@H]2C[C@@H]2[C@H]1n1cnc2c(N[C@@H]3C[C@H]4CC[C@H]3C4)nc(Cl)nc21

>  <Label>
condition not met

$$$$
